- Test target: Recombinant human FcγRIIIa-V158 (human, UniProt P08637 17-208)
- Sequence (P08637 17-208 F176V): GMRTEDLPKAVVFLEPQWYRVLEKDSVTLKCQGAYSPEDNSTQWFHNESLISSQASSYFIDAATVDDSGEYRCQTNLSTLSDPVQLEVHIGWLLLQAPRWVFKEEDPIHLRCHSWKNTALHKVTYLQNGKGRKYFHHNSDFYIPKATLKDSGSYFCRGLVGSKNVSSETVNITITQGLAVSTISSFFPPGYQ
- Protocol summary: SPR; +kif
Measure: pKd
In textbook form, pKd equals minus log to base ten of the concentration in mol/L.

Request: Returns the measured pKd for the input binder. Input: human IgG1 antibody specific for protein 4, S239D/S298A + T256D/T307Q, +Kif (antibody) ASTKGPSVFPLAPSSKSTSGGTAALGCLVKDYFPEPVTVSWNSGALTSGVHTFPAVLQSSGLYSLSSVVTVPSSSLGTQTYICNVNHKPSNTKVDKKVEPKSCDKTHTCPPCPAPELLGGPDVFLFPPKPKDTLMISRDPEVTCVVVDVSHEDPEVKFNWYVDGVEVHNAKTKPREEQYNATYRVVSVLQVLHQDWLNGKEYKCKVSNKALPAPIEKTISKAKGQPREPQVYTLPPSRDELTKNQVSLTCLVKGFYPSDIAVEWESNGQPENNYKTTPPVLDSDGSFFLYSKLTVDKSRWQQGNVFSCSVMHEALHNHYTQKSLSLSPGK
Result: 7.85
